# maps each entry to its rate of dead pests (%)
Test system: Spodoptera litura
Assay: Insecticidal effect for Spodoptera litura by spraying treatment to host crop (Test Example 2)
Type: in vivo
Settings: 100 ppm; sprayed on soybean; third-instar larvae of Spodoptera litura; fifth day after
Provide only the numeric value, understood in %.

For orientation, consider the following solved cases.
O=C(c1c(F)cccc1Cl)N1COCN(c2ccc(SC(F)(F)C(F)(F)F)cc2F)C1=O	100
O=C(c1c(F)cccc1F)N1COCN(c2c(F)cc([S+]([O-])C(F)(F)F)cc2F)C1=O (centres unmarked)	100
Cc1cc(N2COCN(C(=O)c3c(F)cccc3F)C2=O)c(C)cc1SC(F)(F)F	100
C=CCN1CN(C(=O)c2c(F)cccc2F)C(=O)N(c2ccc(Oc3ccc(C(F)(F)F)cc3Cl)cc2F)C1	100
O=C(c1c(F)cccc1F)N1CNCN(c2cc(Cl)c(OC(F)(F)C(F)C(F)(F)F)cc2Cl)C1=O (centres unmarked)	100

Which value of rate of dead pests (%) has been reported for "CNC(=O)C(=O)N1CN(C(=O)c2c(F)cccc2F)C(=O)N(c2ccc(Oc3ccc(C(F)(F)F)cc3Cl)cc2F)C1" in the records? 100

Which value of rate of dead pests (%) has been reported for Cc1cc([S+]([O-])C(F)(F)F)c(C)cc1N1COCN(C(=O)c2c(F)cccc2F)C1=O (centres unmarked) in the records? 100

Which value of rate of dead pests (%) has been reported for "Cc1cc(SC(F)(F)F)c(Cl)cc1N1COCN(C(=O)c2c(F)cccc2Cl)C1=O" in the records? 100

---

Test system: Plutella xylostella
Test: Insecticidal effect for Plutella xylostella by immersion treatment of host crop root (Test Example 3)
Format: in vivo
Conditions: Plutella xylostella, 120 h; 25 ppm; cabbage root immersed 5 days; ten second-instar larvae on stem and leaves; counted on the fifth day, 24° C.; read-out: rate of dead pests (%)
# maps each entry to its pest or weed control at 25 ppm
Provide only the numeric value, understood in %.

For orientation, consider the following solved cases.
O=C(c1c(F)cccc1F)N1COCN(c2ccc(SC(F)(F)F)cc2F)C1=O	100
O=C(c1c(F)cccc1F)N1COCN(c2ccc(SC(F)F)cc2F)C1=O	100
O=C(O)C(=O)N1CN(C(=O)c2c(F)cccc2F)C(=O)N(c2ccc(Oc3ccc(C(F)(F)F)cc3Cl)cc2F)C1	90
O=C(c1c(F)cccc1F)N1COCN(c2ccc([S+]([O-])C(F)(F)C(F)(F)F)cc2F)C1=O (stereo not drawn)	100
O=C(c1c(F)cccc1F)N1CN=CN(c2cc(Cl)c(F)c(Cl)c2F)C1=O	95

Continue with the next compound.
Which value of pest or weed control at 25 ppm has been reported for CN1CN(C(=O)c2c(F)cccc2F)C(=O)N(c2ccc([S+]([O-])C(F)F)cc2F)C1 (stereo not drawn) in the records? 100

---

System: Spodoptera litura
Test: Insecticidal effect for Spodoptera litura by spraying treatment to host crop (Test Example 2)
Format: in vivo
Settings: 100 ppm; sprayed on soybean; third-instar larvae of Spodoptera litura; fifth day after
# maps each entry to its rate of dead pests (%)
Provide only the numeric value, understood in %.

CN1CN(C(=O)c2c(F)cccc2F)C(=O)N(c2ccc(SC(F)(F)C(F)Cl)cc2F)C1 (centres unmarked)	100

Checklist item: rate of dead pests (%) tested on Spodoptera litura, entry "O=C(c1c(F)cccc1F)N1COCN(c2c(F)cc(SC(F)(F)F)cc2F)C1=O" , value? 100

Checklist item: rate of dead pests (%) tested on Spodoptera litura, entry "CSc1cc(F)c(N2COCN(C(=O)c3c(F)cccc3F)C2=O)c(F)c1" , value? 100
